Record: Kd reported on FKBP12 (Homo sapiens (Human)).
Sequence (P62942 whole entry): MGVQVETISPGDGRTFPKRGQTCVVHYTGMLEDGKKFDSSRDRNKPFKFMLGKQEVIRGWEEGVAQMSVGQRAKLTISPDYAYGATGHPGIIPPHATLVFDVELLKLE

The compound identified as COC1CC(CC(C)C2CC(=O)C(C)C=C(C)C(O)C(OC)C(=O)C(C)CC(C)C=CC=CC=C(C)C(OC3CC3)CC3CCC(C)C(O)(O3)C(=O)C(=O)N3CCCCC3C(=O)O2)CCC1OCCO (stereo not drawn) [Compound 46] registered its Kd at > 1 nM

The compound identified as CO[C@@H]1C[C@H](C[C@@H](C)[C@@H]2CC(=O)[C@H](C)/C=C(\C)[C@H](O)[C@@H](OC)C(=O)[C@H](C)C[C@H](C)/C=C/C=C/C=C(\C)[C@@H](OCCC3COC3)C[C@@H]3CC[C@@H](C)[C@@](O)(O3)C(=O)C(=O)N3CCCC[C@H]3C(=O)O2)CC[C@H]1O registered its Kd at < 0.3 nM

The compound identified as COC1CC(CC(C)C2CC(=O)C(C)C=C(C)C(O)C(OC)C(=O)C(C)CC(C)C=CC=CC=C(C)C(OCC3CC(F)(F)C3)CC3CCC(C)C(O)(O3)C(=O)C(=O)N3CCCCC3C(=O)O2)CCC1O (stereo not drawn) registered its Kd at 0.3 to 1 nM

The compound identified as CO[C@@H]1C[C@H](C[C@@H](C)[C@@H]2CC(=O)[C@H](C)/C=C(\C)[C@@H](O)[C@@H](OC)C(=O)[C@H](C)C[C@H](C)/C=C/C=C/C=C(\C)[C@@H](OCCCO)C[C@@H]3CC[C@@H](C)[C@@](O)(O3)C(=O)C(=O)N3CCCC[C@H]3C(=O)O2)CC[C@H]1OCCCS(C)(=O)=O registered its Kd at < 0.3 nM

The compound identified as COC1CC(CC(C)C2CC(=O)C(C)C=C(C)C(O)C(OC)C(=O)C(C)CC(C)C=CC=CC=C(C)C(OC3CC3)CC3CCC(C)C(O)(O3)C(=O)C(=O)N3CCCCC3C(=O)O2)CCC1OCCO (stereo not drawn) [Compound 47] registered its Kd at > 1 nM

The compound identified as COCCOCCS(=O)(=O)NC1CC2CCC(C)C(O)(O2)C(=O)C(=O)N2CCCCC2C(=O)OC(C(C)CC2CCC(OCCO)C(OC)C2)CC(=O)C(C)C=C(C)C(O)C(OC)C(=O)C(C)CC(C)C=CC=CC=C1C (mixture of isomers) registered its Kd at < 0.3 nM

The compound identified as CO[C@@H]1C[C@H](C[C@@H](C)[C@@H]2CC(=O)[C@H](C)/C=C(\C)[C@@H](O)[C@@H](OC)C(=O)[C@H](C)C[C@H](C)/C=C/C=C/C=C(\C)[C@@H](NS(=O)(=O)CC3CCOCC3)C[C@@H]3CC[C@@H](C)[C@@](O)(O3)C(=O)C(=O)N3CCCC[C@H]3C(=O)O2)CC[C@H]1O registered its Kd at < 0.3 nM

The compound identified as CO[C@@H]1C[C@H](C[C@@H](C)[C@@H]2CC(=O)[C@H](C)/C=C(\C)[C@@H](O)[C@@H](OC)C(=O)[C@H](C)C[C@H](C)/C=C/C=C/C=C(\C)[C@@H](OCCC3CCOC3)C[C@@H]3CC[C@@H](C)[C@@](O)(O3)C(=O)C(=O)N3CCCC[C@H]3C(=O)O2)CC[C@H]1O (stereo partly drawn) registered its Kd at < 0.3 nM

The compound identified as COC1CC(CC(C)C2CC(=O)C(C)C=C(C)C(O)C(OC)C(=O)C(C)CC(C)C=CC=CC=C(C)C(OCC3CC3)CC3CCC(C)C(O)(O3)C(=O)C(=O)N3CCCCC3C(=O)O2)CCC1O (stereo not drawn) registered its Kd at 0.3 to 1 nM

The compound identified as CO[C@@H]1C[C@H](C[C@@H](C)[C@@H]2CC(=O)[C@H](C)/C=C(\C)[C@@H](O)[C@@H](OC)C(=O)[C@H](C)C[C@H](C)/C=C/C=C/C=C(\C)[C@H](OCC3CCC3)C[C@@H]3CC[C@@H](C)[C@@](O)(O3)C(=O)C(=O)N3CCCC[C@H]3C(=O)O2)CC[C@H]1OCCCS(C)(=O)=O registered its Kd at > 1 nM

The compound identified as CO[C@@H]1C[C@H](C[C@@H](C)[C@@H]2CC(=O)[C@H](C)/C=C(\C)[C@@H](O)[C@@H](OC)C(=O)[C@H](C)C[C@H](C)/C=C/C=C/C=C(\C)[C@@H](OCCC3CCO3)C[C@@H]3CC[C@@H](C)[C@@](O)(O3)C(=O)C(=O)N3CCCC[C@H]3C(=O)O2)CC[C@H]1O (stereo partly drawn) registered its Kd at < 0.3 nM

The compound identified as COC1CC(CC(C)C2CC(=O)C(C)C=C(C)C(O)C(OC)C(=O)C(C)CC(C)C=CC=CC=C(C)C(OC3CC3)CC3CCC(C)C(O)(O3)C(=O)C(=O)N3CCCCC3C(=O)O2)CCC1OCCCO (stereo not drawn) [Compound 52] registered its Kd at 0.3 to 1 nM

The compound identified as COC1C(=O)C(C)CC/C=C/C=C/C=C(\C)[C@H](NS(=O)(=O)CCO)C[C@H]2CC[C@H](C)[C@](O)(O2)C(=O)C(=O)N(C)C(C)C(=O)OC([C@H](C)C[C@@H]2CC[C@@H](OC3CC3)[C@H](OC)C2)CC(=O)C(C)/C=C(\C)C1O (stereo partly drawn) registered its Kd at 0.3 to 1 nM

The compound identified as CO[C@@H]1C[C@H](C[C@@H](C)[C@@H]2CC(=O)[C@H](C)/C=C(\C)[C@@H](O)[C@@H](OC)C(=O)[C@H](C)C[C@H](C)/C=C/C=C/C=C(\C)[C@@H](OCC3CC3)C[C@@H]3CC[C@@H](C)[C@@](O)(O3)C(=O)C(=O)N3CCCC[C@H]3C(=O)O2)CC[C@H]1OCCCS(C)(=O)=O registered its Kd at > 1 nM

The compound identified as CO[C@@H]1C[C@H](C[C@@H](C)[C@@H]2CC(=O)[C@H](C)/C=C(\C)[C@@H](O)[C@@H](OC)C(=O)[C@H](C)C[C@H](C)/C=C/C=C/C=C(\C)[C@@H](OCCC3COC3)C[C@@H]3CC[C@@H](C)[C@@](O)(O3)C(=O)C(=O)N3CCCC[C@H]3C(=O)O2)CC[C@H]1O registered its Kd at < 0.3 nM
